- System: SR leukemia
- EXPERIMENT_DESCRIPTION: NCI-60 one-dose screen, 48 h
- RECORDED_CONDITIONS: 10 µM unless noted
About 83,000 compounds went through this panel and 20% of them were active in at least one assay; those are over-represented in the sample as a whole. Activity calls are given as the source filed them. How the source made its calls: active means growth percent below 10; inactive means the rest.
Give your call using only these classes: T = active, F = inactive

{"columns": ["MOLECULE", "CATEGORY"],
 "data": [
  ["CSc1nc(N)nc2c1ncn2C", "F"],
  ["CCN(CC)CCNC(=O)c1c(C)[nH]c(/C=C2\\C(=O)Nc3cc(NC(=O)NC(=O)c4ccc(OC)cc4F)ccc32)c1C", "F"],
  ["CN1CCN(C(=O)/C=C/c2ccc([N+](=O)[O-])o2)CC1", "F"],
  ["O=C(CSc1nnc(-c2ccc(Cl)cc2)o1)Nc1ccc(C(=O)/C=C/c2ccccc2)cc1", "F"],
  ["CCOC(=O)NNc1nncc2ccccc12", "F"]
]}

**Query** Can you look up the reported call for COc1cc2ncnc(Oc3ccc(NC(=O)Nc4ccc(C5(C#N)CCCC5)cc4)c4ccccc34)c2cc1OC for me?
**Result** F

**Query** Can you look up the reported call for O=C(c1cc(-c2ccc(Cl)cc2)nc2ccccc12)N1N=C(c2ccccc2)CC1c1cc(-c2ccccc2)nn1-c1ccccc1 (stereo not given) for me?
**Result** F

**Query** Can you look up the reported call for COc1cccc(/C=N/C(=S)NC2(C)C3CCC(C3)C2(C)C)c1O (stereo not given) for me?
**Result** F

**Query** Can you look up the reported call for CCOC(=O)c1noc2c1CCc1cn(Cc3cc(OC)cc(OC)c3)cc1-2 for me?
**Result** F

**Query** Can you look up the reported call for CCOC(=O)c1noc2c1CCc1c-2cn(Cc2ccc(OC)cc2)c1-c1cc(OC)c(OC)c(OC)c1 for me?
**Result** F

**Query** Can you look up the reported call for Clc1ccc(OCc2nc(-c3ccccc3)n[nH]2)c(Cl)c1 for me?
**Result** F

###

- Tested on: U251 CNS
- EXPERIMENT_DESCRIPTION: NCI-60 one-dose screen, 48 h (100 = growth as untreated, 0 = no growth, -100 = all killed)
- RECORDED_CONDITIONS: 10 µM unless noted
Compounds without any hit were thinned out: in the full panel of roughly 83,000, 20% have a hit.
Friendly reminder: growth below 90% is 1, at or above is 0.

# example entries with known answers
{"columns": ["SMILES_TEXT", "CATEGORY"],
 "data": [
  ["COC(=O)/C=C/C(=O)c1cc(C)cc(C)c1O", 0],
  ["NC(N)=N/N=C/c1ccc([N+](=O)[O-])cc1", 0],
  ["O=C(Nc1cccc(-n2ccc3c(NC(=O)c4ccccc4)ncnc32)c1)Nc1ccc(Cl)c(C(F)(F)F)c1", 1]
]}

**Query** Field: below-cutoff. Rule: recorded growth strictly less than 90%. Subject: C=C1C(=O)O[C@H]2[C@H]1CC/C(C(=O)Nc1ccc(OC)c(C(N)=O)c1O)=C\CC[C@@]1(C)O[C@@H]21
**Result** 1

**Query** Field: below-cutoff. Rule: recorded growth strictly less than 90%. Subject: CCc1c(C)c2cc(-n3c(-c4ccc(OC)cc4)csc3=N)c(O)c(C)c2oc1=O
**Result** 1

**Query** Field: below-cutoff. Rule: recorded growth strictly less than 90%. Subject: Cc1cc2nc(-c3c(N)ncc(C#N)c3-c3ccc(Cl)cc3)[nH]c2cc1C
**Result** 1

**Query** Field: below-cutoff. Rule: recorded growth strictly less than 90%. Subject: O=C1CCC(=O)N1C1CCCCC1
**Result** 0

**Query** Field: below-cutoff. Rule: recorded growth strictly less than 90%. Subject: CCN(CC)CCNc1ccc([N+](=O)[O-])c2sc3cc(Cl)ccc3c(=O)c12
**Result** 1

**Query** Field: below-cutoff. Rule: recorded growth strictly less than 90%. Subject: COC(=O)c1oc2c(C(C)=O)c(OCCN3CCCCC3)ccc2c1C
**Result** 0
